Tested on: HEK293 (human embryonic kidney cell line)
Assay: Resazurin cytotoxicity assay, HEK-293
Format: cell-based
Details: Homo sapiens, HEK293; resazurin assay, 48 h; >100 µM indicates no activity; read-out: Mean IC50 HEK-293
I'd appreciate it if you could supply IC50 values for the items below.

These solved cases illustrate the format of a correct answer.
compound: COc1cc(C)c(Oc2cc(C)cc(O)c2O)c(O)c1
assay_result: > 100 µM
//
compound: COc1cc(O)cc(C)c1Oc1cc(C)cc(O)c1O
assay_result: > 100 µM
//
compound: C/C=C/[C@@H]1OC(=O)C=C[C@@H]1O
assay_result: 66.9 µM
//
compound: COc1cc(OC)c2c(O)c3c(c(-c4c5c(c(O)c6c(OC)cc(OC)cc46)CO[C@@H](C)[C@H]5OC(C)=O)c2c1)C(O)[C@@H](C)OC3 (some centres unmarked)
assay_result: 16.9 µM

Pending compound:
// IC50 value for COc1cc(OC)c2c(O)c3c(c(-c4c5c(c(O)c6c(OC)cc(OC)cc46)CO[C@@H](C)[C@H]5OC(C)=O)c2c1)C[C@@H](C)OC3 : 93.8 µM

---

I'd appreciate it if you could supply CC50 at 24 h values for the items below.
Test: MTT cell viability assay against Hs27 cells
Format: cell-based
Conditions: human, Hs27 fibroblast cells, >100 µM indicates no activity, read-out: CC50 against human fibroblasts Hs27

These solved cases illustrate the format of a correct answer.
compound: COc1cc(OC)c2c(O)c3c(c(-c4c5c(c(O)c6c(OC)cc(OC)cc46)CO[C@@H](C)[C@H]5OC(C)=O)c2c1)C(O)[C@@H](C)OC3 (stereo partly shown) [E, ES-242-3]
CC50 at 24 h: > 100 µM
//
compound: COc1cc(C)c(Oc2cc(C)cc(O)c2O)c(O)c1 [Compound A, NK-A 17e233]
CC50 at 24 h: > 100 µM
//
compound: CCc1nc(N)nc(N)c1-c1ccc(Cl)cc1 [pyrimethamine, reference compound]
CC50 at 24 h: 44 µM

Each compound below has a recorded value; state its CC50 at 24 h.
1. COc1cc(C)c(Oc2cc(C)cc(O)c2)c(O)c1 [Compound C, cyperin]
2. COc1cc(O)cc(C)c1Oc1cc(C)cc(O)c1O [B]
3. COc1cc(OC)c2c(O)c3c(c(-c4c5c(c(O)c6c(OC)cc(OC)cc46)CO[C@@H](C)[C@H]5OC(C)=O)c2c1)C[C@@H](C)OC3 [D, ES-242-1]
4. C/C=C/[C@@H]1OC(=O)C=C[C@@H]1O [F, 5S,6S-phomalactone]

**Result**
1: > 100 µM; 2: > 100 µM; 3: > 100 µM; 4: 81 µM

---

Tested on: T. gondii strain ME49
Test: T. gondii proliferation assay (3H-uracil incorporation)
Assay type: cell-based, Toxoplasma gondii
Details: Hs27 host cells, 48 h treatment, 3H-uracil incorporation; read-out: IC50 against T. gondii strain ME49 (proliferation)
value_type: pIC50
Numbers only, as −log10 of the molar value.

// pIC50 value for COc1cc(O)cc(C)c1Oc1cc(C)cc(O)c1O : 4.65

---

Test system: THP-1 (human monocytic leukemia cell line)
Assay: Resazurin cytotoxicity assay, THP-1
Format: cell-based
Settings: Homo sapiens, THP-1; resazurin assay, 48 h; >100 µM indicates no activity; read-out: Mean IC50 THP1
value_type: pIC50
Numbers only, as −log10 of the molar value.

molecule: C/C=C/[C@@H]1OC(=O)C=C[C@@H]1O
pIC50: 4.61

COc1cc(OC)c2c(O)c3c(c(-c4c5c(c(O)c6c(OC)cc(OC)cc46)CO[C@@H](C)[C@H]5OC(C)=O)c2c1)C(O)[C@@H](C)OC3 (some centres unmarked) on THP-1 (human monocytic leukemia cell line) gives pIC50 = 4.66

FYI, the data here is from paper PMC9495004.
